Target: T1, human Nectin-4 (human, UniProt Q96NY8 32-349)
T1 construct: a Gly32-Ser349 FLAG construct is described only under the SPR assay; also called PVRL4
T1 sequence (looked up): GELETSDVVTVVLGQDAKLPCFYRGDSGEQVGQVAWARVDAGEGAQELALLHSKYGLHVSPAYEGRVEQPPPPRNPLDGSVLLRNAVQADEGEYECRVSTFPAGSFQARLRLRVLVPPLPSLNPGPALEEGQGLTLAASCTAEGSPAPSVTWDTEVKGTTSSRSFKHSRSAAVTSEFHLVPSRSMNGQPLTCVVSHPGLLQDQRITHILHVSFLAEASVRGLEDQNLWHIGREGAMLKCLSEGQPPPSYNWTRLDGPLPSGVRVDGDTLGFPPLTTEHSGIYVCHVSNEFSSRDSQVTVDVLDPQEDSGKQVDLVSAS
Experiment: FP competition, tracer SEQ ID NO 217
*1 amine or outer side, *2 acyl side, *3 side chain or, on linkers, in order; H or OH if unused. Bridges are numbered along the chain shown (N, C = ends). Where no end group is shown, it is not given here. [ ]: non-standard residue; d: D form. TATA = O=C(CC[*:1])N1CN(C(=O)CC[*:2])CN(C(=O)CC[*:3])C1; 1Nal = N[C@@H](Cc1cccc2ccccc12)C(=O)O; Gly(cPent) = N[C@H](C(=O)O)C1CCCC1; Hyp = O=C(O)[C@@H]1C[C@@H](O)CN1; hArg = N=C(N)NCCCC[C@H](N)C(=O)O
VALUE TYPE: pKi
Give bare numbers, as −log10 of the molar value.

Known pKi results, listed for orientation:
- BINDER: "Ac-CPFGCM[hArg]NWSWPIWC (linker 1-5-15 via TATA) [BCY7660]"
  VALUE TYPE: "pKi"
  TEST RESULT: 7.58
- BINDER: "ACPFGCMKNWSWPIWCA (linker 2-6-16 via TATA, also called 80-09-02-N002) [BCY428]"
  VALUE TYPE: "pKi"
  TEST RESULT: 7.21
- BINDER: "Ac-CPF[dD]C[Gly(cPent)][hArg]NWSTPIWC (linker 1-5-15 via TATA) [BCY7915]"
  VALUE TYPE: "pKi"
  TEST RESULT: 7.70

State recorded pKi for all listed binders.
1. Ac-CPFGCMKNWSFPIWC (linker 1-5-15 via TATA) [BCY7589]
2. Ac-CP[1Nal][dD]CM[hArg]NWSTP[Hyp]WC (linker 1-5-15 via TATA) [BCY8124]
3. Ac-DDDCPF[dD]CM[hArg]NWSTPIWC (linker 4-8-18 via TATA) [BCY8028]

Reply:
[7.46, 8.46, 7.21]
